Test system: Trypanosoma cruzi amastigotes cultured in 3T3 fibroblast cells
experiment-summary: Assay for growth inhibition of kinetoplastid parasite Trypanosoma cruzi (beta-galactosidase Tulahuen strain, CPRG readout)
Assay type: cell-based
measurement-setup: Trypanosoma cruzi, Fibroblast, T. cruzi amastigotes in 3T3 fibroblast cells; read-out: Buckner infectious T. cruzi EC50
Text: Assay for Growth Inhibition of Kinetoplastid Parasite Trypanosoma cruzi Compounds of the invention can be assayed for inhibitor activity against Trypanosoma cruzi amastigotes cultured in 3T3 fibroblast cells. The assay is done using the mammalian stage (amastigotes) of T. cruzi that replicates in the intracellular space of host cells. […] This allows for a colorimetric readout by using the substrate CPRG and an absorbance plate reader. […]
pEC50: −log10 of the molar value.
In this section, each of the molecules is paired with its reported pEC50.
recorded-endpoint: pEC50

INSERT INTO measurements (molecule, target_entity, value) VALUES
  ('CC(C)CCc1cnc2nn(-c3cc(NC(=O)N4CCC4)ccc3F)cc2c1 [Compound 98]', 'Trypanosoma cruzi amastigotes cultured in 3T3 fibroblast cells', 7.82),
  ('O=C(Nc1ccc(F)c(-n2cc3cc(C4CCCC4)cnc3n2)c1)N1CC[C@@H](F)C1 [Compound 43]', 'Trypanosoma cruzi amastigotes cultured in 3T3 fibroblast cells', 8.28),
  ('CC(C)c1cnc2nn(-c3cc(NC(=O)CCC4CC4)ccc3F)cc2c1 [Compound 215]', 'Trypanosoma cruzi amastigotes cultured in 3T3 fibroblast cells', 6.13),
  ('CC(C)c1cnc2nn(-c3cc(NC(=O)C4CC4(F)F)ccc3F)cc2c1 (centres unmarked) [Compound 208]', 'Trypanosoma cruzi amastigotes cultured in 3T3 fibroblast cells', 6.45),
  ('Cc1ncc(C(=O)Nc2ccc(F)c(-n3cc4cc(C(C)C)cnc4n3)c2)o1 [Compound 83]', 'Trypanosoma cruzi amastigotes cultured in 3T3 fibroblast cells', 8.14),
  ('O=C(Nc1ccc(F)c(-n2cc3cc(N4CC5CC(C4)O5)cnc3n2)c1)N1CC(F)C1 [Compound 240]', 'Trypanosoma cruzi amastigotes cultured in 3T3 fibroblast cells', 7.68),
  ('O=C(Nc1ccc(F)c(-n2cc3cc(Br)cnc3n2)c1)c1ccco1 [Compound 130]', 'Trypanosoma cruzi amastigotes cultured in 3T3 fibroblast cells', 7.44),
  ('CC(C)c1cnc2nn(-c3cc(NC(=O)N4CC5(CCC5)C4)ccc3F)cc2c1 [Compound 226]', 'Trypanosoma cruzi amastigotes cultured in 3T3 fibroblast cells', 6.89);

###

Test system: L. donovani HU3 strain in mouse peritoneal macrophages
experiment-summary: Assay for inhibition of parasitemia of Leishmania donovani in mouse macrophages (SYBR Green nuclei count, high-content imaging)
Assay type: cell-based
measurement-setup: Leishmania donovani, Peritoneal macrophage, L. donovani in mouse peritoneal macrophages; read-out: L. donovani in Mouse Macrophages EC50
Procedure: Assay for Inhibition of Parasitemia of Leishmania donovani in Mouse Macrophages […] The next day, Leishmania parasites are isolated from the spleens of mice infected for 9-11 weeks and 4×10^5 isolated parasites in […] of the above media are added to each plate well. […] Infected cells are imaged with Evotec Opera high-content microscope, and the number of parasites in well is determined by counting parasite nuclei visualized by staining with Sybr® Green dye.
pEC50: −log10 of the molar value.
recorded-endpoint: pEC50

INSERT INTO measurements (compound, recorded_endpoint, value) VALUES
  ('O=C(Nc1ccc(F)c(-n2cc3cc(Br)cnc3n2)c1)N1CC2(CC2)C1', 'pEC50', 6.17),
  ('O=C(Nc1ccc(F)c(-n2cc3cc(N4CC5(CC5)C4)cnc3n2)c1)N1CC(F)(F)C1', 'pEC50', 7.41),
  ('CC(C)c1cnc2nn(-c3cc(NC(=O)C4CCCCO4)ccc3F)cc2c1 (stereo not shown)', 'pEC50', 6.39),
  ('O=C(Nc1ccc(F)c(-n2cc3cc(Cl)cnc3n2)c1)N1CC(F)C1', 'pEC50', 7.00);

###

System: L. donovani HU3 strain in mouse peritoneal macrophages
experiment-summary: Assay for inhibition of parasitemia of Leishmania donovani in mouse macrophages (SYBR Green nuclei count, high-content imaging)
Format: cell-based
measurement-setup: Leishmania donovani, Peritoneal macrophage, L. donovani in mouse peritoneal macrophages; read-out: L. donovani in Mouse Macrophages EC50
pEC50: −log10 of the molar value.
recorded-endpoint: pEC50

INSERT INTO results (compound, value) VALUES
  ('Cc1nc(C)c(C(=O)Nc2ccc(F)c(-n3cc4cc(C(C)(C)C)cnc4n3)c2)o1', 6.40),
  ('O=C(Nc1ccc(F)c(-n2cc3cc(C4CCOCC4)cnc3n2)c1)N1CCC1', 8.01),
  ('O=C(Nc1ccc(F)c(-n2cc3cc(N4CC5C(C4)C5(F)F)cnc3n2)c1)N1CC(F)C1 (stereo not shown)', 8.40),
  ('Cc1nc(C)c(C(=O)Nc2ccc(F)c(-n3cc4cc(CCC(C)C)cnc4n3)c2)o1', 6.89);

###

EC50 values, listed per item
Tested on: Trypanosoma cruzi amastigotes cultured in 3T3 fibroblast cells
experiment-summary: Assay for growth inhibition of kinetoplastid parasite Trypanosoma cruzi (beta-galactosidase Tulahuen strain, CPRG readout)
Type: cell-based
measurement-setup: Trypanosoma cruzi, Fibroblast, T. cruzi amastigotes in 3T3 fibroblast cells; read-out: Buckner infectious T. cruzi EC50
recorded-endpoint: EC50 (nM)

INSERT INTO measurements (molecule, target_entity, readout_units, value) VALUES
  ('N#CC1CN(c2cnc3nn(-c4cc(NC(=O)N5CC(F)C5)ccc4F)cc3c2)C1 [Compound 266]', 'Trypanosoma cruzi amastigotes cultured in 3T3 fibroblast cells', 'nM', 65),
  ('Cc1cccnc1-c1cnc2nn(-c3cc(NC(=O)c4ccco4)ccc3F)cc2c1 [Compound 2]', 'Trypanosoma cruzi amastigotes cultured in 3T3 fibroblast cells', 'nM', 1),
  ('CC(C)(C)Cc1cnc2nn(-c3cc(NC(=O)N4CC[C@@H](F)C4)ccc3F)cc2c1 [Compound 46]', 'Trypanosoma cruzi amastigotes cultured in 3T3 fibroblast cells', 'nM', 1.7),
  ('CN(C)c1cnc2nn(-c3cc(NC(=O)N4CCC4)ccc3F)cc2c1 [Compound 170]', 'Trypanosoma cruzi amastigotes cultured in 3T3 fibroblast cells', 'nM', 4.6),
  ('O=C(Nc1ccc(F)c(-n2cc3cc(C4CCN4)cnc3n2)c1)N1CC(F)C1 (centres unmarked) [Compound 264]', 'Trypanosoma cruzi amastigotes cultured in 3T3 fibroblast cells', 'nM', 480),
  ('Cc1nc(C)c(C(=O)Nc2ccc(F)c(-n3cc4cc(CC5CCC5)cnc4n3)c2)o1 [Compound 106]', 'Trypanosoma cruzi amastigotes cultured in 3T3 fibroblast cells', 'nM', 61),
  ('Cc1nc(C)c(C(=O)Nc2ccc(F)c(-n3cc4cc(N5CCOCC5)cnc4n3)c2)o1 [Compound 158]', 'Trypanosoma cruzi amastigotes cultured in 3T3 fibroblast cells', 'nM', 15),
  ('CNc1cnc2nn(-c3cc(NC(=O)c4oc(C)nc4C)ccc3F)cc2c1 [Compound 153]', 'Trypanosoma cruzi amastigotes cultured in 3T3 fibroblast cells', 'nM', 150),
  ('O=C(Nc1ccc(F)c(-n2cc3cc(N4CC5(CSC5)C4)cnc3n2)c1)N1CC(F)C1 [Compound 239]', 'Trypanosoma cruzi amastigotes cultured in 3T3 fibroblast cells', 'nM', 10),
  ('Cc1nc(C)c(C(=O)Nc2ccc(F)c(-n3cc4cc(CCC(C)C)cnc4n3)c2)o1 [Compound 107]', 'Trypanosoma cruzi amastigotes cultured in 3T3 fibroblast cells', 'nM', 77),
  ('CC(C)c1cnc2nn(-c3cc(NC(=O)OCCC(F)(F)F)ccc3F)cc2c1 [Compound 174]', 'Trypanosoma cruzi amastigotes cultured in 3T3 fibroblast cells', 'nM', 720),
  ('CCOC1CC1C(=O)Nc1ccc(F)c(-n2cc3cc(C(C)C)cnc3n2)c1 (centres unmarked) [Compound 207]', 'Trypanosoma cruzi amastigotes cultured in 3T3 fibroblast cells', 'nM', 1270),
  ('O=C(Nc1ccc(F)c(-n2cc3cc(Br)cnc3n2)c1)N1CC[C@@H](F)C1 [Compound 127]', 'Trypanosoma cruzi amastigotes cultured in 3T3 fibroblast cells', 'nM', 6.8),
  ('O=C(Nc1ccc(F)c(-n2cc3cc(N4CC5(CC5)C4)cnc3n2)c1)N1CCC1 [Compound 257]', 'Trypanosoma cruzi amastigotes cultured in 3T3 fibroblast cells', 'nM', 2),
  ('O=C(Nc1ccc(F)c(-n2cc3cc(CC4CCC4)cnc3n2)c1)N1CC[C@@H](F)C1 [Compound 51]', 'Trypanosoma cruzi amastigotes cultured in 3T3 fibroblast cells', 'nM', 19),
  ('O=C(Nc1ccc(F)c(-n2cc3cc(C(F)(F)F)cnc3n2)c1)N1CC[C@@H](F)C1 [Compound 322]', 'Trypanosoma cruzi amastigotes cultured in 3T3 fibroblast cells', 'nM', 3),
  ('O=C(Nc1ccc(F)c(-n2cc3cc(N4CCC4)cnc3n2)c1)c1ccco1 [Compound 151]', 'Trypanosoma cruzi amastigotes cultured in 3T3 fibroblast cells', 'nM', 12);

###

Test system: Trypanosoma cruzi amastigotes cultured in 3T3 fibroblast cells
experiment-summary: Assay for growth inhibition of kinetoplastid parasite Trypanosoma cruzi (beta-galactosidase Tulahuen strain, CPRG readout)
Type: cell-based
measurement-setup: Trypanosoma cruzi, Fibroblast, T. cruzi amastigotes in 3T3 fibroblast cells; read-out: Buckner infectious T. cruzi EC50
Text: Assay for Growth Inhibition of Kinetoplastid Parasite Trypanosoma cruzi Compounds of the invention can be assayed for inhibitor activity against Trypanosoma cruzi amastigotes cultured in 3T3 fibroblast cells. The assay is done using the mammalian stage (amastigotes) of T. cruzi that replicates in the intracellular space of host cells. […] This allows for a colorimetric readout by using the substrate CPRG and an absorbance plate reader. […]
pEC50: −log10 of the molar value.
recorded-endpoint: pEC50

INSERT INTO assay_data (compound, value) VALUES
  ('O=C(Nc1ccc(F)c(-n2cc3cc(N4CC5(CCOCC5)C4)cnc3n2)c1)N1CC(F)C1', 7.70),
  ('Cn1cc(-c2cnc3nn(-c4cc(NC(=O)N5CC(F)C5)ccc4F)cc3c2)cn1', 7.52),
  ('O=C(Nc1ccc(F)c(-n2cc3cc(N4CCC4)cnc3n2)c1)N1CC(F)(F)C1', 7.77),
  ('CC(C)c1cnc2nn(-c3cc(NC(=O)CC(C)C(F)(F)F)ccc3F)cc2c1 (centres unmarked)', 6.44),
  ('C[C@@H]1CN(c2cnc3nn(-c4cc(NC(=O)N5CC(F)C5)ccc4F)cc3c2)C[C@H](C)O1', 7.33),
  ('Cc1nc(COC(C)(C)C)oc1C(=O)Nc1ccc(F)c(-n2cc3cc(C(C)C)cnc3n2)c1', 6.85),
  ('N#CC1(C(=O)Nc2ccc(F)c(-n3cc4cc(-c5ccccn5)cnc4n3)c2)CC1', 6.85),
  ('O=C(Nc1ccc(F)c(-n2cc3cc(N4CCC(C5COC5)CC4)cnc3n2)c1)N1CC(F)C1', 7.48),
  ('CC(C)c1cnc2nn(-c3cc(NC(=O)c4cnc(C5CC5)o4)ccc3F)cc2c1', 6.92),
  ('O=C(Nc1ccc(F)c(-n2cc3cc(N4CCCC4)cnc3n2)c1)c1ccco1', 7.66),
  ('CCC(C)c1cnc2nn(-c3cc(NC(=O)c4ccco4)ccc3F)cc2c1 (centres unmarked)', 7.28),
  ('[2H]C([2H])([2H])N(c1cnc2nn(-c3cc(NC(=O)N4CC(F)(F)C4)ccc3F)cc2c1)C([2H])([2H])[2H]', 7.80),
  ('O=C(Nc1ccc(F)c(-n2cc3cc(N4CC(F)(F)C4)cnc3n2)c1)[C@H]1C[C@@H]1F (single isomer, unassigned)', 6.95),
  ('O=C(O)C1CCN(c2cnc3nn(-c4cc(NC(=O)N5CC(F)C5)ccc4F)cc3c2)CC1', 4.70),
  ('O=C(Nc1ccc(F)c(-n2cc3cc(N4CC5(CC5)C4)cnc3n2)c1)N1CC(F)(F)C1', 7.92),
  ('O=C(Nc1ccc(F)c(-n2cc3cc(C4CC4)cnc3n2)c1)c1ccco1', 8.20),
  ('CC(C)c1cnc2nn(-c3cc(NC(=O)N4CCN5CCC4CC5)ccc3F)cc2c1', 4.81),
  ('O=C(Nc1ccc(F)c(-n2cc3cc(-c4ncccc4F)cnc3n2)c1)C1CC1', 7.82),
  ('O=C(Nc1ccc(F)c(-n2cc3cc(CC(F)(F)F)cnc3n2)c1)N1CCC1', 8.77),
  ('CC1(C)C=C(C(=O)Nc2ccc(F)c(-n3cc4cc(-c5ccccn5)cnc4n3)c2)C1', 8.70),
  ('O=C(Nc1ccc(F)c(-n2cc3cc(C4CCOCC4)cnc3n2)c1)N1CCC1', 8.29),
  ('CC(C)c1cnc2nn(-c3cc(NC(=O)c4ccc(F)o4)ccc3F)cc2c1', 8.28),
  ('CCC(C)(C)c1cnc2nn(-c3cc(NC(=O)N4CC[C@@H](F)C4)ccc3F)cc2c1', 4.92),
  ('CC(C)c1cnc2nn(-c3cc(NC(=O)N(C)CC(F)(F)F)ccc3F)cc2c1', 7.96),
  ('CN(C)c1cnc2nn(-c3cc(NC(=O)c4ccco4)ccc3F)cc2c1', 7.64),
  ('CC(C)(C)c1cnc2nn(-c3cc(NC(=O)N4CC[C@@H](F)C4)ccc3F)cc2c1', 8.55),
  ('CC(C)c1cnc2nn(-c3cc(NC(=O)c4ccc(C#N)o4)ccc3F)cc2c1', 8.55),
  ('CN(C)c1cnc2nn(-c3cc(NC(=O)C4CC4)ccc3F)cc2c1', 6.86),
  ('O=C(Nc1ccc(F)c(-n2cc3cc(CC4CCC4)cnc3n2)c1)N1CCC1', 8.06),
  ('O=C(Nc1ccc(F)c(-n2cc3cc(-c4ncccc4Cl)cnc3n2)c1)N1CCC1', 9.00),
  ('O=C(Nc1ccc(F)c(-n2cc3cc(C4CC4)cnc3n2)c1)N1CC(F)(F)C1', 7.96),
  ('Cc1nc(C(=O)Nc2ccc(F)c(-n3cc4cc(C(C)C)cnc4n3)c2)c(C)o1', 7.24);

Origin of values: patent US11384078B2
